For each entry below, report its pKd value.
- assayed_system: T1, human 5T4-His protein (human, UniProt Q13641 32-355)
- T1 construct: also called recombinant 5T4 protein (human 5T4-his tag); human 5T4 protein; not shown: His tag
- T1 sequence (looked up): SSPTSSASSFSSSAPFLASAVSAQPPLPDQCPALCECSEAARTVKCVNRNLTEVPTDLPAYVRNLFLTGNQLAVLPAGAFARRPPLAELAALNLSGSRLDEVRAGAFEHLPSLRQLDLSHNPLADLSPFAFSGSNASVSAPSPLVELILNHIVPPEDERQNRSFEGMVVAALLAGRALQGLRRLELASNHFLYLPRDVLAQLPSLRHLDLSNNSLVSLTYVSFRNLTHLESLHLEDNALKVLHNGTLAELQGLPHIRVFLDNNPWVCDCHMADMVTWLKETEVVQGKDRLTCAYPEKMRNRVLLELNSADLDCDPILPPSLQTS
- protocol: SPR Biacore, Protein A capture
Numbers only, as −log10 of the molar value.

Hu286B4-18 (antibody, V domains shown, humanized) VH: EVQLQESGPGLVKPSDTLSLTCAVSGYSITNNYYWNWIRQPPGKGLEWMGYITYDGSNNYNPSLKNRITVSRDTSKNQFSLKLSSVTAVDTAVYYCTRGGGQLRFDYWGQGTTVTVSS VL: DIQMTQSPSSLSASVGDRVTITCKASQSVSNEVTWYQQKPGKAPKMLIYYASNRYTGVPDRFSGSGYGTDFTFTISSLQPEDIATYYCQQDYSSPWTFGGGTKVEIK; 8.93

Now for another entry.
Kindly note the recorded pKd for 286B4 chimeric antibody (antibody, V domains shown, chimeric mAb; also called 284B4-C) VH: DVQLHESGPGLVKPSQSLSLTCSVTGYSITNNYYWNWIRQFPGNNLEWMGYITYDGSNNYNPSLKNRISVTRDTSKNQFFLKLSSVTTEDTATYYCTRGGGQLRFDYWGQGTTLTVSS VL: SIVMTQTPKFLIVSAGDRVTITCKASQSVSNEVTWYQQKPGQSPKMLIYYASNRYTGVPDRFTGSGYGTDFTFTINTVQAEDLAIYFCQQDYSSPWTFGGGTKLEIK , which is 8.90
